Each item that follows carries a reported Octet response after 200 sec association.
Biological target: T1, LA peptide
T1 construct: The peptide was coated on the Octet sensor; also called peptide with N-terminal leucine and penultimate alanine
Assay: BLI (Octet), peptide on sensor, purified protein in solution
Write the number in nm without appending the unit.

Problem: Fill in: Octet response after 200 sec association of PS847 (designed binder, Variant of PS557) MPTAASATESAIEDTPAPARPEVDGRTKPKRQPRYHVVLWDDDDHTYQYVVVMLRSLFGHPPERGYRLAKEMDTQGRVIVLTTTREHAELKRDQIHAFGYDRLLARSKGSMKASIEAEE is ___
Solution: 9.92

Next:
Problem: Fill in: Octet response after 200 sec association of PS819 (designed binder, Variant of PS557; also called V72M, N41D, E63K) MPTAASATESAIEDTPAPARPEVDGRTKPKRQPRYHVVLWDDDDHTYQYVVVMLQSLFGHPPKRGYRLAKEMDTQGRVIVLTTTREHAELKRDQIHAFGYDRLLARSKGSMKASIEAEE is ___
Solution: 11.1
